# system_under_test: T1, human glucose-dependent insulinotropic polypeptide receptor (GIPR), expressed on CHO-K1 cells (human, UniProt P48546 22-466)
# T1 sequence (looked up): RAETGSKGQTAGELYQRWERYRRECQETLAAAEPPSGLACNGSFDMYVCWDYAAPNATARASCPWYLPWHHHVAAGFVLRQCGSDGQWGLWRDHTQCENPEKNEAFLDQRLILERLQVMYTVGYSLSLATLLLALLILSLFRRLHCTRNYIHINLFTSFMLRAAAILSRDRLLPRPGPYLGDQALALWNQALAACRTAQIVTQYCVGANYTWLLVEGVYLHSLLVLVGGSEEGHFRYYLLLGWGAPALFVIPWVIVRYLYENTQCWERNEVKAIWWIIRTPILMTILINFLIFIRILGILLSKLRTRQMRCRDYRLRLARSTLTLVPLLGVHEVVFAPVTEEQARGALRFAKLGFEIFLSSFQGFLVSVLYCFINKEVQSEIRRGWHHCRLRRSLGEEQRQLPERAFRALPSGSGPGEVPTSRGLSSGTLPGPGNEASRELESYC
# assay_text: cell-based or functional assay
Numbered stars: 1 amine (or outer) side, 2 acyl side, 3 side chain; on linkers, the order of the positions; unused ones are H or OH. Square brackets hold non-standard residues; d marks the D form. Primed or numbered codes have the meaning given here. Side chains are listed from the residue outwards. Ends that are not written are not given here. * marks the point of attachment. C18″ = C18 fatty acid moiety (of 2OEG-γGlu-C18, K*); γGlu = O=C(O)[C@H](CCC(=O)[*:2])N[*:1]; AEEA = NCCOCCOCC(=O)O; Aib = CC(C)(N)C(=O)O
property_name: Relative % to native ligand
Answer with the number, then the unit.

Exercise: Quick one: Relative % to native ligand for H[Aib]QGTFTSDYSK([AEEA-AEEA-γGlu-C18″])YLDYMMARDFVQWLIEGGPSSGAPPPS-NH2 [Peptide No. 5D] ?
Key: 3%

Exercise: Quick one: Relative % to native ligand for Y[Aib]QGTFTSDYSKYLDYMMQRDFVQWLIEGGPSSGAPPPSC-NH2 [Peptide No. 5-2] ?
Key: 738%

Exercise: Quick one: Relative % to native ligand for Y[Aib]QGTFTSDYSK([AEEA-AEEA-γGlu-C18″])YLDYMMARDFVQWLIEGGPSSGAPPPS-NH2 [Peptide No. 5-1D] ?
Key: 41%

Exercise: Quick one: Relative % to native ligand for Y[Aib]QGTFTSDYSKYLDYK([AEEA-AEEA-γGlu-C18″])MARDFVQWLIEGGPSSGAPPPS-NH2 [Peptide No. 5-1F] ?
Key: 2%

Kindly review the next binder as well.
Exercise: Quick one: Relative % to native ligand for H[Aib]QGTFTSDYSKLLDYMMQRDFVQWLLEGGPSSGAPPPSC-NH2 [Peptide No. 5-5] ?
Key: 526%

The values you see were collected from patent US20250296960A1.
